biological target: Gastrin-releasing peptide receptor (Rattus norvegicus) (UniProt P52500); assay: Tested for the inhibition of Bombesin-stimulated amylase release at 5 uM concentration in the presence of 0.2 nM of bombesin in rat pranceatic acini; format: functional
Sequence (P52500 whole entry): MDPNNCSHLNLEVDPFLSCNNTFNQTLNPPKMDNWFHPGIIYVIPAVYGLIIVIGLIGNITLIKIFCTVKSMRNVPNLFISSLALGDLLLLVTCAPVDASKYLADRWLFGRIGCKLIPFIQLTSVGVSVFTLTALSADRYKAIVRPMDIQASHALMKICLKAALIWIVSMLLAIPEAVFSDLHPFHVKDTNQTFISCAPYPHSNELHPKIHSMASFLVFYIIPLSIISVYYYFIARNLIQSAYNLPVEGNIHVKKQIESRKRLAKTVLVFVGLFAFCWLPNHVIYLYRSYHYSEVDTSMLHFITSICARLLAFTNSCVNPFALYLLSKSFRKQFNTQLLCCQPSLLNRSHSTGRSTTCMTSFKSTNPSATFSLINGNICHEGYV
Where a SMILES comes first, the peptide text is derived from it. The star is where a group is joined. X2 = CC(=O)NC[C@H](CC(C)C)N*
measured.metric: Release (%)
Write down the numeric answer in % and omit the unit.

Some molecules with known Release results, for comparison:
[
  {
    "molecule": "CN[C@H](Cc1ccccc1)C(=O)N[C@@H](Cc1c[nH]c2ccccc12)C(=O)N[C@@H](C)C(=O)N[C@H](C(=O)NCC(=O)N[C@@H](Cc1c[nH]cn1)C(=O)N[C@H](CN[C@@H](CCSC)C(N)=O)CC(C)C)C(C)C",
    "unit.string": "%",
    "Release": 14.3
  },
  {
    "molecule": "CN[C@H](Cc1ccccc1)C(=O)N[C@@H](Cc1c[nH]cn1)C(=O)N[C@@H](Cc1c[nH]c2ccccc12)C(=O)N[C@@H](C)C(=O)N[C@H](C(=O)NCC(=O)N[C@@H](Cc1c[nH]cn1)C(=O)N[C@@H](CC(C)C)CN(C=O)[C@@H](CCSC)C(N)=O)C(C)C",
    "unit.string": "%",
    "Release": 12.9
  },
  {
    "molecule": "CC(=O)NC[C@H](CC(C)C)NC(=O)[C@H](Cc1c[nH]cn1)NC(=O)CNC(=O)[C@@H](NC(=O)[C@H](C)NC(=O)[C@H](Cc1c[nH]c2ccccc12)NC(=O)[C@H](Cc1c[nH]cn1)NC(=O)[C@H](CCC(N)=O)NC(C)=O)C(C)C (Ac-QHWAVGH-X2)",
    "unit.string": "%",
    "Release": 4
  }
]

Now examine the next entry.
Entry `CSCC[C@@H](C(N)=O)N(C=O)C[C@H](CC(C)C)NC(=O)[C@H](Cc1c[nH]cn1)NC(=O)CNC(=O)[C@@H](NC(=O)[C@H](C)NC(=O)[C@H](Cc1c[nH]c2ccccc12)NC(=O)[C@H](Cc1c[nH]cn1)NC(=O)[C@@H](Cc1ccccc1)NC(=O)CN)C(C)C` ; Release = 11.6

* * *

biological target: UniProtKB P52500; assay: Tested for the inhibition of Bombesin-stimulated amylase release in the presence of 0.2 nM of bombesin in rat pranceatic acini; format: functional
Where a SMILES comes first, the peptide text is derived from it. The star is where a group is joined. X2 = CC(=O)NC[C@H](CC(C)C)N*; For = O=C*
Here, each record is paired with measured Release data.
Write down the numeric answer in % and omit the unit.

[
  {
    "compound": "CN[C@H](Cc1ccccc1)C(=O)N[C@@H](Cc1c[nH]c2ccccc12)C(=O)N[C@@H](C)C(=O)N[C@H](C(=O)NCC(=O)N[C@@H](Cc1c[nH]cn1)C(=O)N[C@H](CN[C@@H](CCSC)C(N)=O)CC(C)C)C(C)C",
    "Release (%)": 21.2
  },
  {
    "compound": "CC(=O)NC[C@H](CC(C)C)NC(=O)[C@H](Cc1c[nH]cn1)NC(=O)CNC(=O)[C@@H](NC(=O)[C@H](C)NC(=O)[C@H](Cc1cn(C=O)c2ccccc12)NC(=O)[C@H](Cc1c[nH]cn1)NC(=O)[C@H](CCC(N)=O)NC(C)=O)C(C)C (Ac-QHW(For)AVGH-X2)",
    "Release (%)": 16
  }
]

Entry `CC(=O)NC[C@H](CC(C)C)NC(=O)[C@H](Cc1c[nH]cn1)NC(=O)CNC(=O)[C@@H](NC(=O)[C@H](C)NC(=O)[C@H](Cc1c[nH]c2ccccc12)NC(=O)[C@H](Cc1c[nH]cn1)NC(=O)[C@H](N)Cc1ccccc1)C(C)C` ; Release = 15.7

Entry `CC(C)C[C@@H](CN[C@@H](CC(C)C)C(N)=O)NC(=O)[C@H](Cc1c[nH]cn1)NC(=O)CNC(=O)[C@@H](NC(=O)[C@H](C)NC(=O)[C@H](Cc1c[nH]c2ccccc12)NC(=O)[C@H](CCC(N)=O)NC(=O)[C@H](CC(N)=O)NC(=O)CNC(=O)[C@H](CC(C)C)NC(=O)[C@H](CCCN=C(N)N)NC(=O)[C@H](CCC(N)=O)NC(=O)[C@@H]1CCC(=O)N1)C(C)C` ; Release = 17.4

Provenance of the data: ChEMBL document CHEMBL1125552
